Assay target: Human orexin receptor type 2 (Homo sapiens)
Assay overview: Test Example 1: agonist activity for orexin receptor type 2 (aequorin luminescence, intracellular calcium mobilization)
Setup conditions: compound 10 μm; CHO cells transiently expressing human orexin receptor type 2 and apoaequorin; relative percentage of luminescence for the luminescence (100%) of Orexin A (100 μM)

>  <Compound>
CC(C)N1CC=C(c2cccc(Cl)c2NC(=O)N2CCC(C)(c3cc(C4CC4)on3)CC2)CC1 [Example 144]

>  <Assay target>
Human orexin receptor type 2 (Homo sapiens)

>  <Agonist Activity (%)>
143

$$$$
>  <Compound>
CCN1CCN(c2ccccc2NC(=O)N2CCC(c3nc4ccccc4o3)CC2)CC1 [Example 2]

>  <Assay target>
Human orexin receptor type 2 (Homo sapiens)

>  <Agonist Activity (%)>
35

$$$$
>  <Compound>
Cc1ccc(C2CCN(C(=O)Nc3ccccc3N3CCN(C(C)C)CC3)CC2)c(F)c1 [Example 18]

>  <Assay target>
Human orexin receptor type 2 (Homo sapiens)

>  <Agonist Activity (%)>
128

$$$$
>  <Compound>
CC(C)N1CC=C(c2cccc(F)c2NC(=O)N2CCC(C)(c3nc4ccccc4o3)CC2)CC1 [Example 50]

>  <Assay target>
Human orexin receptor type 2 (Homo sapiens)

>  <Agonist Activity (%)>
187

$$$$
>  <Compound>
Cc1ccc(C2CCN(C(=O)Nc3ccccc3N3CCN(C)CC3)CC2)cc1 [Example 123]

>  <Assay target>
Human orexin receptor type 2 (Homo sapiens)

>  <Agonist Activity (%)>
105

$$$$
>  <Compound>
CCC1(c2noc(C3CC3)n2)CCN(C(=O)Nc2c(Cl)cccc2N2CCN(C(C)C)CC2)CC1 [Example 89]

>  <Assay target>
Human orexin receptor type 2 (Homo sapiens)

>  <Agonist Activity (%)>
152

$$$$
>  <Compound>
CC(C)c1ncc(C2(C)CCN(C(=O)Nc3c(Cl)cccc3N3CCN(C(C)C)CC3)CC2)o1 [Example 93]

>  <Assay target>
Human orexin receptor type 2 (Homo sapiens)

>  <Agonist Activity (%)>
203

$$$$
>  <Compound>
Cc1ccc(C2CCN(C(=O)Nc3ccccc3N3CCN(C(C)C)CC3C)CC2)cc1 (racemic) [Example 30]

>  <Assay target>
Human orexin receptor type 2 (Homo sapiens)

>  <Agonist Activity (%)>
36

$$$$
>  <Compound>
CC(C)N1CCN(c2cccc(Cl)c2NC(=O)N2CCC(C)(c3csc(C4CC4)n3)CC2)CC1 [Example 96]

>  <Assay target>
Human orexin receptor type 2 (Homo sapiens)

>  <Agonist Activity (%)>
160

$$$$
>  <Compound>
CC(C)N1CCN(c2ccccc2NC(=O)N2CCC(C#N)(c3ccccc3)CC2)CC1.Cl [Example 6]

>  <Assay target>
Human orexin receptor type 2 (Homo sapiens)

>  <Agonist Activity (%)>
151

$$$$
>  <Compound>
CC(C)N1CCC(c2cccc(F)c2NC(=O)N2CCC(c3cc(C4CC4)on3)CC2)CC1 [Example 51]

>  <Assay target>
Human orexin receptor type 2 (Homo sapiens)

>  <Agonist Activity (%)>
151

$$$$
>  <Compound>
CC(C)N1CCN(c2cccc(Cl)c2NC(=O)N2CCC(C)(c3noc(C4CC4)c3Cl)CC2)CC1 [Example 103]

>  <Assay target>
Human orexin receptor type 2 (Homo sapiens)

>  <Agonist Activity (%)>
178

$$$$
>  <Compound>
CCN1CCN(c2ccccc2NC(=O)N2CCC(c3ccc(OC)cc3)CC2)CC1 [Example 1]

>  <Assay target>
Human orexin receptor type 2 (Homo sapiens)

>  <Agonist Activity (%)>
77

$$$$
>  <Compound>
COc1cccc(CN2CCN(C(C)C)CC2)c1NC(=O)N1CCC(c2ccc(C)cc2)CC1 [Example 63]

>  <Assay target>
Human orexin receptor type 2 (Homo sapiens)

>  <Agonist Activity (%)>
26

$$$$
>  <Compound>
CC(C)N1CCN(c2cccc(Cl)c2NC(=O)N2CCC(C)(c3noc(C4CCC4)n3)CC2)CC1 [Example 78]

>  <Assay target>
Human orexin receptor type 2 (Homo sapiens)

>  <Agonist Activity (%)>
170

$$$$
>  <Compound>
CC(C)N1CCN(c2cccc(Cl)c2NC(=O)N2CCC(C)(c3nnc(C4CC4)s3)CC2)CC1 [Example 102]

>  <Assay target>
Human orexin receptor type 2 (Homo sapiens)

>  <Agonist Activity (%)>
160

$$$$
>  <Compound>
CCOc1cccc(C2CCN(C(C)CC)CC2)c1NC(=O)N1CCC(c2ccc(C)cc2)CC1 (centres unmarked) [Example 128]

>  <Assay target>
Human orexin receptor type 2 (Homo sapiens)

>  <Agonist Activity (%)>
136

$$$$
>  <Compound>
CCN1CCN(c2ccccc2NC(=O)N2CCC(c3ccc(C)cc3)CC2)CC1 [Example 122]

>  <Assay target>
Human orexin receptor type 2 (Homo sapiens)

>  <Agonist Activity (%)>
122

$$$$
>  <Compound>
CC(C)N1CCN(c2cccc(Br)c2NC(=O)N2CCC(C)(c3noc(C4CC4)n3)CC2)CC1 [Example 88]

>  <Assay target>
Human orexin receptor type 2 (Homo sapiens)

>  <Agonist Activity (%)>
161

$$$$
>  <Compound>
CC(C)N1CCN(c2cccc(Cl)c2NC(=O)N2CCC(C)(c3noc(C4CC4)n3)CC2)CC1 [Example 67]

>  <Assay target>
Human orexin receptor type 2 (Homo sapiens)

>  <Agonist Activity (%)>
154

$$$$
>  <Compound>
CC(C)N1CCN(c2ccccc2NC(=O)N2CCC(C)(c3nc(-c4ccccc4)no3)CC2)CC1 [Example 12]

>  <Assay target>
Human orexin receptor type 2 (Homo sapiens)

>  <Agonist Activity (%)>
123

$$$$
>  <Compound>
CC(C)N1CCN(c2cccc(F)c2NC(=O)N2CCC(C)(c3noc(C4CC4)n3)CC2)CC1 [Example 45]

>  <Assay target>
Human orexin receptor type 2 (Homo sapiens)

>  <Agonist Activity (%)>
127

$$$$
>  <Compound>
COC(=O)c1cccc(N2CCN(C(C)C)CC2)c1NC(=O)N1CCC(c2ccc(C)cc2)CC1 [Example 38]

>  <Assay target>
Human orexin receptor type 2 (Homo sapiens)

>  <Agonist Activity (%)>
119

$$$$
>  <Compound>
COc1cccc(N2CCN(C(C)C)CC2)c1NC(=O)N1CCC(C)(c2noc(C)n2)CC1 [Example 23]

>  <Assay target>
Human orexin receptor type 2 (Homo sapiens)

>  <Agonist Activity (%)>
92

$$$$
>  <Compound>
Cc1ccc(C2CCN(C(=S)Nc3c(F)cccc3N3CCN(C(C)C)CC3)CC2)cc1 [Example 64]

>  <Assay target>
Human orexin receptor type 2 (Homo sapiens)

>  <Agonist Activity (%)>
140

$$$$
>  <Compound>
CC(C)N1CCN(c2cccc(F)c2NC(=O)N2CCC(C)(c3noc(C(F)(F)F)n3)CC2)CC1 [Example 24]

>  <Assay target>
Human orexin receptor type 2 (Homo sapiens)

>  <Agonist Activity (%)>
127

$$$$
>  <Compound>
Cc1ccc(C2CCN(C(=O)Nc3c(F)cccc3N3C[C@H]4C[C@@H]3CN4C(C)C)CC2)cc1 [Example 151]

>  <Assay target>
Human orexin receptor type 2 (Homo sapiens)

>  <Agonist Activity (%)>
97

$$$$
>  <Compound>
CCN1CCCN(c2ccccc2NC(=O)N2CCC(c3ccc(C)cc3)CC2)CC1 [Example 153]

>  <Assay target>
Human orexin receptor type 2 (Homo sapiens)

>  <Agonist Activity (%)>
54

$$$$
>  <Compound>
Cc1ccc(C2CCN(C(=O)Nc3c(F)cccc3C3CCN(C(C)C)CC3)CC2)cc1 [Example 39]

>  <Assay target>
Human orexin receptor type 2 (Homo sapiens)

>  <Agonist Activity (%)>
106

$$$$
>  <Compound>
CC(C)N1CCN(c2cccc(F)c2NC(=O)N2CCC(Oc3ccccc3)CC2)CC1 [Example 27]

>  <Assay target>
Human orexin receptor type 2 (Homo sapiens)

>  <Agonist Activity (%)>
129

$$$$
>  <Compound>
Cc1ccc(C2CCN(C(=O)Nc3c(F)cccc3N3C[C@@H]4C[C@H]3CN4C(C)C)CC2)cc1 [Example 150]

>  <Assay target>
Human orexin receptor type 2 (Homo sapiens)

>  <Agonist Activity (%)>
116

$$$$
>  <Compound>
Cc1ccc(C2CCN(C(=O)Nc3ccccc3N3CCN(C(C)C)C(C)C3)CC2)cc1 (racemic) [Example 28]

>  <Assay target>
Human orexin receptor type 2 (Homo sapiens)

>  <Agonist Activity (%)>
104

$$$$

====

Measured Agonist Activity (%), listed per entry for reference.
Assay target: Human orexin receptor type 2 (Homo sapiens, UniProt O43614)
Sequence (O43614 whole entry): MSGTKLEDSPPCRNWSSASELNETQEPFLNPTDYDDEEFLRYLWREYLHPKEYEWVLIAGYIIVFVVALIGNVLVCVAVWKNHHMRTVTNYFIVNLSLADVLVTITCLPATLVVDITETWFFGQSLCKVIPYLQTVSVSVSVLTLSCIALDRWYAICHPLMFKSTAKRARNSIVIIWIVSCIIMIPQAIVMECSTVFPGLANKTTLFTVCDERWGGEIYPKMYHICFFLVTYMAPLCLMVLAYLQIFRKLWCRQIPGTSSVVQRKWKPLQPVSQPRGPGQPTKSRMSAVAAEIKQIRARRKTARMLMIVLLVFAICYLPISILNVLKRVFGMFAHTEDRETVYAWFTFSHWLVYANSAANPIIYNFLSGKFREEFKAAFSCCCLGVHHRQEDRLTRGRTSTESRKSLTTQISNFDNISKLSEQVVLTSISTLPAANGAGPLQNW
Assay overview: Test Example 1: agonist activity for orexin receptor type 2 (aequorin luminescence, intracellular calcium mobilization)
Setup conditions: compound 10 μm; CHO cells transiently expressing human orexin receptor type 2 and apoaequorin; relative percentage of luminescence for the luminescence (100%) of Orexin A (100 μM)

>  <Molecule>
Cc1ccc(C2CCN(C(=O)Nc3c(F)cccc3N3CCN(C(C)C)CC3)CC2C)cc1 (racemic) [Example 26]

>  <Assay target>
Human orexin receptor type 2 (Homo sapiens, UniProt O43614)

>  <Result unit>
%

>  <Agonist Activity (%)>
63

$$$$
>  <Molecule>
CC(C)c1ccc(C2CCN(C(=O)Nc3c(F)cccc3N3CCN(C(C)C)CC3)CC2)cc1 [Example 40]

>  <Assay target>
Human orexin receptor type 2 (Homo sapiens, UniProt O43614)

>  <Result unit>
%

>  <Agonist Activity (%)>
122

$$$$
>  <Molecule>
Cc1ccc(C2CCN(C(=O)Nc3c(F)cccc3C3=CCN(C(C)CF)CC3)CC2)cc1 (stereo not shown) [Example 134]

>  <Assay target>
Human orexin receptor type 2 (Homo sapiens, UniProt O43614)

>  <Result unit>
%

>  <Agonist Activity (%)>
135

$$$$
>  <Molecule>
Cc1ccc(C2CCN(C(=O)Nc3ccccc3N3CCN(C4CCOC4)CC3)CC2)cc1 (stereo not shown) [Example 124]

>  <Assay target>
Human orexin receptor type 2 (Homo sapiens, UniProt O43614)

>  <Result unit>
%

>  <Agonist Activity (%)>
27

$$$$
